Protein target, amino acids: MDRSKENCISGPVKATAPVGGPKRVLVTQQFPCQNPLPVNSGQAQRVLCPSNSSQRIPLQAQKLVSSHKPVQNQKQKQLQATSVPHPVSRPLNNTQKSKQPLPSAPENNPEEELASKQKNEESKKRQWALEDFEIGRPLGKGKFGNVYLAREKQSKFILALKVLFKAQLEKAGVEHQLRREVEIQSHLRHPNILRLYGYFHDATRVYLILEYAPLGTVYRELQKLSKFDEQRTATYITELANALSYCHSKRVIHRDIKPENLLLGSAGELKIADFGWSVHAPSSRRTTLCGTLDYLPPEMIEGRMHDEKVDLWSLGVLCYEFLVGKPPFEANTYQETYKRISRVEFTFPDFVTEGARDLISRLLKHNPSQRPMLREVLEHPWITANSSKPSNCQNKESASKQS
pIC50: −log10 of the molar value.
measurement_label: pIC50

| smiles_record | measurement_label | reading_qualifier | experimental_value |
| --- | --- | --- | --- |
| COc1ccc2nc(-c3n[nH]cc3/C=C/c3cnccc3C)[nH]c2c1 | pIC50 | = | 6.26 |
| COc1ccc2nc(-c3n[nH]cc3/C=C/c3cccnc3)[nH]c2c1 | pIC50 | = | 6.29 |
| N#Cc1c[nH]c(-c2n[nH]cc2/C=C/c2cccnc2)n1 | pIC50 | < | 5.00 |
| FC(F)(F)c1c[nH]c(-c2n[nH]cc2/C=C/c2cccnc2)n1 | pIC50 | = | 6.92 |
| CCNC(=O)c1cncc(/C=C/c2c[nH]nc2-c2nc3ccc(OC)cc3[nH]2)c1 | pIC50 | < | 4.00 |
| CCNCc1cncc(/C=C/c2c[nH]nc2-c2nc(C(F)(F)F)c[nH]2)c1 | pIC50 | < | 5.00 |

----------
Tested on: HeLa
Assay: Antiproliferative activity against human HeLa cells
Format: functional, cell-based
Quick reference: IC50 of the listed items.
measurement_label: IC50

| smiles_record | experimental_value |
| --- | --- |
| FC(F)(F)c1c[nH]c(-c2n[nH]cc2/C=C/c2cncc3ccccc23)n1 | 3600 nM |
| COc1ccc2nc(-c3n[nH]cc3/C=C/c3cncc4ccccc34)[nH]c2c1 | 2800 nM |
| COc1cncc(/C=C/c2c[nH]nc2-c2nc3ccc(OC)cc3[nH]2)c1 | 890 nM |
| CCNCc1cncc(/C=C/c2c[nH]nc2-c2nc(C(F)(F)F)c[nH]2)c1 | 3200 nM |
| COC(=O)c1cncc(/C=C/c2c[nH]nc2-c2nc3ccc(OC)cc3[nH]2)c1 | 4400 nM |
| CN1CCN(c2ccc3nc(-c4n[nH]cc4/C=C/c4cccnc4)[nH]c3c2)CC1 | 460 nM |
| CCNCc1cncc(/C=C/c2c[nH]nc2-c2nc3ccc(OC)cc3[nH]2)c1 | 620 nM |

----------
Test: Inhibition of CDK1/cyclin B
Design: species or system Homo sapiens
pIC50: −log10 of the molar value.
# cutoff 7 applies to pIC50; >= gives Yes, < gives No

| smiles_record | assigned_label |
| --- | --- |
| COc1ccc2nc(-c3n[nH]cc3/C=C/c3cccnc3)[nH]c2c1 | Yes |
| COc1cncc(/C=C/c2c[nH]nc2-c2nc3ccc(OC)cc3[nH]2)c1 | Yes |
| CCNCc1cncc(/C=C/c2c[nH]nc2-c2nc3ccc(OC)cc3[nH]2)c1 | Yes |
| COc1ccc2nc(-c3n[nH]cc3/C=C/c3cncc(C#N)c3)[nH]c2c1 | No |
| CN1CCN(c2ccc3nc(-c4n[nH]cc4/C=C/c4cccnc4)[nH]c3c2)CC1 | Yes |
| COC(=O)c1cncc(/C=C/c2c[nH]nc2-c2nc3ccc(OC)cc3[nH]2)c1 | No |
| CCNCc1cncc(/C=C/c2c[nH]nc2-c2nc(C(F)(F)F)c[nH]2)c1 | Yes |
| FC(F)(F)c1c[nH]c(-c2n[nH]cc2/C=C/c2cccnc2)n1 | No |
| N#Cc1c[nH]c(-c2n[nH]cc2/C=C/c2cccnc2)n1 | No |

----------
Quick reference: IC50 of the listed items.
System: HCT-116
Experiment: Antiproliferative activity against human HCT116 cells
Assay type: functional, cell-based
measurement_label: IC50 (nM)

| smiles_record | experimental_value |
| --- | --- |
| COc1ccc2nc(-c3n[nH]cc3/C=C/c3cccnc3)[nH]c2c1 | 2200 |
| CN1CCN(c2ccc3nc(-c4n[nH]cc4/C=C/c4cccnc4)[nH]c3c2)CC1 | 190 |
| FC(F)(F)c1c[nH]c(-c2n[nH]cc2/C=C/c2cncc3ccccc23)n1 | 2900 |

----------
Quick reference: pIC50 of the listed items.
Assay: Inhibition of CDK1/cyclin B
Design: species or system Homo sapiens
pIC50: −log10 of the molar value.
measurement_label: pIC50

| smiles_record | measurement_label | experimental_value |
| --- | --- | --- |
| CCNC(=O)c1cncc(/C=C/c2c[nH]nc2-c2nc3ccc(OC)cc3[nH]2)c1 | pIC50 | 6.96 |
| COc1ccc2nc(-c3n[nH]cc3/C=C/c3cncc4ccccc34)[nH]c2c1 | pIC50 | 6.82 |
| FC(F)(F)c1c[nH]c(-c2n[nH]cc2/C=C/c2cncc3ccccc23)n1 | pIC50 | 6.96 |
| COc1ccc2nc(-c3n[nH]cc3/C=C/c3cnccc3C)[nH]c2c1 | pIC50 | 6.80 |
